Hey, just so you know, these numbers are from PubChem BioAssay.

Assay name: A549 cell viability effects, profiling panel, calcein-AM fluorescence, 48 h, basal (AID 1162); further: test concentration not given here
Condition details: higher = more signal
Property measured: z-score

| Compound | Reported value |
| --- | --- |
| O=C1[C@H]2CCn3c(=O)n(-c4ccccc4)c(=O)n3[C@H]2[C@H](O)[C@@H]2O[C@H]12 | 0.0313 |
| COc1ccc(COC(=O)NN=C2C[C@@H](O)[C@@H](O)[C@@H]3[C@@H]4C(=O)N(c5cccc(Oc6ccccc6)c5)C(=O)[C@@H]4CC[C@H]23)cc1 | -0.777 |
| CC(C)=NOC(C)CN1CCCc2nc(C)c(C)cc21 (stereo unspecified) | 0.755 |
| CC(C)(C)N1C(=O)[C@H]2[C@H]3[C@H](O)[C@H](O)CC(=NNC(=O)OCc4ccccc4)[C@@H]3CC[C@H]2C1=O | 0.193 |
| CC(C)CON=C1C[C@@H](O)[C@@H](O)[C@@H]2[C@@H]3C(=O)N(Cc4ccccc4)C(=O)[C@@H]3CC[C@H]12 | -0.216 |
| CC(C)=CCCC(C)=CCON=C1C[C@@H](O)[C@@H](O)[C@@H]2[C@@H]3C(=O)N(C4CCCCC4)C(=O)[C@@H]3CC[C@H]12 | -0.529 |
